# Assayed target: HLA-A*02:01 (Homo sapiens, UniProt P04439, D140Y/D185E/D98H/E176V/E277Q/G131W/G231S/I119V/I121R/I166T/I218V/L300P/L318F/N151K/N90K/P208A/P217A/Q86G/Q94H/R138H/R169H/T345S)
# Assay text: MHC binding assay (UV-ligand exchange, β2m ELISA)
# Condition description: MHC class I binding score; peptide exchange yield, binding to HLA-A*02:01, UV-ligand exchange with β2m ELISA
Parameter: Peptide exchange

58 (MIISHRALEL; listed as Homo sapiens) [compound 58]	++ (≥20% = ++)
61 (VLPWQPLLL; listed as Homo sapiens) [compound 61]	++ (≥20% = ++)
3 (FLLVPSPIWQL; listed as Homo sapiens) [compound 3]	++++ (≥75% = ++++)
29 (LLWEFPSMA; listed as Homo sapiens) [compound 29]	++++ (≥75% = ++++)
